For each record, write down the corresponding IC50.
# target-or-test-system: human TLR2 (Homo sapiens)
# Construct: host or cells: HEK-Blue hTLR2 (HEK-293)
# Sequence (O60603 21-784): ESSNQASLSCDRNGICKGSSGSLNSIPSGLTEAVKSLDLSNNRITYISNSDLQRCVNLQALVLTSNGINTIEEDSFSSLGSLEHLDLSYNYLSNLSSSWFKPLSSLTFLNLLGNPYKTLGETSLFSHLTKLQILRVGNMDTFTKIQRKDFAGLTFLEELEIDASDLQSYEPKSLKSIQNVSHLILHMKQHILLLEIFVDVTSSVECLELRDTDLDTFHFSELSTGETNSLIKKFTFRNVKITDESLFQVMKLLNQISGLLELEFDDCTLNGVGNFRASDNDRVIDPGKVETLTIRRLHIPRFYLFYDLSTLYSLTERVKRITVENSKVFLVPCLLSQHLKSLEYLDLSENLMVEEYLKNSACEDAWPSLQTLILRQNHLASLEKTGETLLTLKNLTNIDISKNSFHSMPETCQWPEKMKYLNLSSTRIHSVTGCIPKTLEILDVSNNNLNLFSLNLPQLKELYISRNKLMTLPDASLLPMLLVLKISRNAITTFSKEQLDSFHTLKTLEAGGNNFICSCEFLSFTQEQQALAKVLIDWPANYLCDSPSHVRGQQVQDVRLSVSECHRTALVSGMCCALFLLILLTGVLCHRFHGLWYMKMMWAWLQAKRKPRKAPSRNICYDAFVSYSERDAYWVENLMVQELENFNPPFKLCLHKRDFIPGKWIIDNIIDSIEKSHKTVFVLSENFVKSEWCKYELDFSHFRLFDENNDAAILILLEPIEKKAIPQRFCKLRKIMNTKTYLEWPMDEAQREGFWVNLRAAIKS
# assay-comment: HEK-Blue hTLR2 antagonism assay (SEAP reporter) with agonist Pam2CSK4 (TLR2/6 agonist)
# Assay type: cell-based
# test-parameters: Table B; HEK-Blue hTLR2 cells, ~3×EC50 Pam2CSK4, 18 h, SEAP OD 655 nm, 8-point dilutions
Number first, unit second: that is the form wanted.

Entry O=Cc1cc(C(=O)Nc2ccc(C(F)(F)F)c(Cl)c2)cc(F)c1O [Compound B14] , IC50 reported as 1.3 µM

Entry O=Cc1c(O)cc(C#Cc2ccc(N3CCCC3)cc2)cc1F [Compound B4] , IC50 reported as 6.3 µM

Entry O=Cc1cc(C(=O)Nc2ccc(N3C[C@H]4CCC[C@H]4C3)cc2)cc(F)c1O [Compound B76] , IC50 reported as 1.2 µM

Entry O=Cc1cc(C(=O)Nc2ccc(N3C[C@H]4COC[C@H]4C3)cc2)cc(F)c1O [Compound B75] , IC50 reported as 13 µM

Entry O=Cc1cc(C(=O)Nc2ccc(N3CCN(c4ccccc4)CC3)cc2)cc(F)c1O [Compound B83] , IC50 reported as 1 µM

----------
# target-or-test-system: human TLR2 (Homo sapiens)
# Construct: host or cells: HEK-Blue hTLR2 (HEK-293)
# assay-comment: HEK-Blue hTLR2 antagonism assay (SEAP reporter) with agonist Pam3CSK4 (TLR1/2 agonist)
# Assay type: cell-based
# test-parameters: Table B; HEK-Blue hTLR2 cells, ~3×EC50 Pam3CSK4, 18 h, SEAP OD 655 nm, 8-point dilutions
experimental-readout: log10 IC50 (log10 of the value in µM)
Values reflect log10 of reported IC50 (µM).

Entry Cn1cc(-c2ccc(NC(=O)c3cc(F)c(O)c(C=O)c3)cc2)cn1 , log10 IC50 reported as 1.05

Entry O=Cc1cc(C(=O)Nc2ccc(N3CCCC3)cc2)cc(F)c1O , log10 IC50 reported as 0.30

Entry O=Cc1cc(C(=O)Nc2ccc(N3Cc4ccccc4C3)nc2)cc(F)c1O , log10 IC50 reported as 0.26

Entry O=Cc1cc(C(=O)Nc2ccc(N3CC4(CC4)CC3=O)cc2)cc(F)c1O , log10 IC50 reported as 1.27

Entry O=Cc1cc(C(=O)Nc2ccc(N3CCCC3)nc2)cc(F)c1O , log10 IC50 reported as 0.97

----------
# target-or-test-system: human TLR2 (Homo sapiens)
# Construct: host or cells: HEK-Blue hTLR2 (HEK-293)
# assay-comment: HEK-Blue hTLR2 antagonism assay (SEAP reporter) with agonist Pam3CSK4 (TLR1/2 agonist)
# Type: cell-based
# test-parameters: Table B; HEK-Blue hTLR2 cells, ~3×EC50 Pam3CSK4, 18 h, SEAP OD 655 nm, 8-point dilutions
IC50 strictly less than 1 µM = YES. Otherwise NO.

Query string: Quick check: does O=Cc1cc(C(=O)Nc2ccc(C(F)(F)F)c(Cl)c2)cc(F)c1O [Compound B14] have IC50 under 1 µM?
Result string: NO

Query string: Quick check: does O=Cc1cc(C#Cc2ccc(N3CCOCC3)cc2)cc(F)c1O [Compound B3] have IC50 under 1 µM?
Result string: NO

Query string: Quick check: does O=Cc1cc(C(=O)Nc2ccc(N3C[C@H]4COC[C@H]4C3)cc2)cc(F)c1O [Compound B75] have IC50 under 1 µM?
Result string: NO

Query string: Quick check: does O=Cc1cc(C(=O)Nc2ccc(N3C4CCC3CC4)cc2)cc(F)c1O [Compound B95] have IC50 under 1 µM?
Result string: NO

Query string: Quick check: does O=Cc1cc(C(=O)Nc2ccc(N3Cc4ccccc4C3)cc2)cc(F)c1O [Compound B81] have IC50 under 1 µM?
Result string: YES

Query string: Quick check: does O=Cc1c(O)cc(C#Cc2ccc(N3CCCCC3)cc2)cc1F [Compound B5] have IC50 under 1 µM?
Result string: NO

Query string: Quick check: does O=Cc1cc(NC(=O)Nc2ccc(F)cc2)cc(F)c1O [Compound B64] have IC50 under 1 µM?
Result string: NO

Query string: Quick check: does O=Cc1c(O)cc(C#Cc2ccc(N3CCOCC3)cc2)cc1F [Compound B6] have IC50 under 1 µM?
Result string: NO

Query string: Quick check: does O=Cc1cc(C#Cc2ccc(C(=O)NC3CC3)cc2)cc(F)c1O [Compound B80] have IC50 under 1 µM?
Result string: NO

Query string: Quick check: does O=Cc1cc(C(=O)Nc2ccc(C(F)(F)F)cc2)cc(F)c1O [Compound B13] have IC50 under 1 µM?
Result string: NO

Query string: Quick check: does O=Cc1cc(C(=O)Nc2ccc(N3C4CCCC3CC4)cc2)cc(F)c1O [Compound B96] have IC50 under 1 µM?
Result string: NO

Query string: Quick check: does O=Cc1cc(C#Cc2ccc(N3CCCC3)cc2)cc(F)c1O [Compound B1] have IC50 under 1 µM?
Result string: YES

Query string: Quick check: does O=Cc1cc(C(=O)Nc2ccc(N3CCC4(CC4)C3)cc2)cc(F)c1O [Compound B79] have IC50 under 1 µM?
Result string: NO

Query string: Quick check: does O=Cc1cc(NC(=O)c2ccccc2)cc(F)c1O [Compound B9] have IC50 under 1 µM?
Result string: NO

Query string: Quick check: does CN(CC(C)(C)C)c1ccc(NC(=O)c2cc(F)c(O)c(C=O)c2)cc1 [Compound B94] have IC50 under 1 µM?
Result string: YES

Query string: Quick check: does O=Cc1cc(C(=O)Nc2cccc(N3CCCC3)c2)cc(F)c1O [Compound B71] have IC50 under 1 µM?
Result string: NO

Query string: Quick check: does O=Cc1cc(C(=O)Nc2ccc(N3C[C@H]4CCC[C@H]4C3)cc2)cc(F)c1O [Compound B76] have IC50 under 1 µM?
Result string: YES

Query string: Quick check: does O=Cc1cc(C(=O)Nc2ccc(N3CC4CC4C3)cc2)cc(F)c1O (stereo not drawn) [Compound B74] have IC50 under 1 µM?
Result string: YES

Query string: Quick check: does O=Cc1cc(S(=O)(=O)Nc2ccc(N3CCCC3)cc2)cc(F)c1O [Compound B17] have IC50 under 1 µM?
Result string: NO

Query string: Quick check: does O=Cc1cc(C(=O)Nc2ccc(N3CCCN(C4CC4)CC3)cc2)cc(F)c1O [Compound B70] have IC50 under 1 µM?
Result string: NO

Query string: Quick check: does O=Cc1cc(C(=O)Nc2ccc(N3CCN(c4ccccc4)CC3)cc2)cc(F)c1O [Compound B83] have IC50 under 1 µM?
Result string: YES

Query string: Quick check: does O=Cc1cc(C(=O)Nc2ccc(N3CCN(C4CC4)CC3)cc2)cc(F)c1O [Compound B69] have IC50 under 1 µM?
Result string: NO

Query string: Quick check: does CC1(C)CCN(c2ccc(NC(=O)c3cc(F)c(O)c(C=O)c3)cc2)C1 [Compound B73] have IC50 under 1 µM?
Result string: YES

These measurements were taken from patent US11299487B2.
